- Test system: Plasmodium berghei
- assay procedure: Screen against P. berghei liver stage (PbLuc), transformed with Luciferase, at 10uM
- Format: functional, HepG2
- condition description: tested at 10 uM
Among all 69,000 compounds or so, about 8,600 (12%) showed an effect of 50% or more. What follows is part of a selection rich in strong results, with near analogues and random picks from the rest.
INHIBITION strictly under 10% means YES; at 10% or over means NO.

Some entries whose results are on file:
CCC(Nc1cccc(Oc2ccccn2)c1)C(N)=O (centres undefined); NO
Cc1ccc2c(c1)CN(C(=O)c1ccccc1F)C(CN(C)C)CO2 (centres undefined); NO
Cc1ccc2c(c1)CN(C(=O)c1cccs1)C(CN(C)C)CO2 (centres undefined); YES
COc1cccc(CN2CCC3(CCN(C(=O)[C@H]4CCCO4)CC3)C2)c1; NO

Query molecule follows.
(Q) Dear colleague, could you confirm whether INHIBITION of Cc1cc(-c2cnc(N3CCNC(=O)C3)nc2-c2ccoc2C)on1 falls below 10%? Thanks.
(A) NO
